Hello, the source for this data is the supplement of paper PMC11451515, in case you need it.

system: NOMO1; assay: cell viability relative to DMSO control; higher = less cytotoxic; details: RPMI 5 mM glucose + 10% dialyzed FBS; 48 h; 0.0211 µM
test.readout: cell viability (%)
Numbers only, in %.

Cc1ccc2nc(NCCN)c3ncc(C)n3c2c1 = 104

List cell viability for every entry below, keeping the order given.
1. Cc1cn2cc(C(=O)N(C)CCO)cc(N[C@@H]3CCOc4cccc(C)c43)c2n1
2. CCN(CC)CCNC(=O)c1c(C)[nH]c(/C=C2\C(=O)Nc3ccc(F)cc32)c1C

130
117

* * *

system: NOMO1; test: cell viability relative to DMSO control; higher = less cytotoxic; conditions: RPMI 5 mM glucose + 10% FBS; 48 h; 0.19 µM
test.readout: cell viability (%)
Give bare numbers, in %.

List cell viability for every entry below, keeping the order given.
1. C[C@]12CCC3c4ccc(O)cc4CCC3C1CCC2=O (some centres undefined)
2. Cc1cc(Nc2ncc3c(n2)N(C)C(=O)N(c2cc(NC(=O)c4cccc(C(F)(F)F)c4)ccc2C)C3)n(C)n1
3. COCCn1c2c([n+](Cc3cnccn3)c1C)C(=O)c1ccccc1C2=O

1: 88.2; 2: 130; 3: 35.3

For every item below, please supply its cell viability.
1. C[C@]1(O)CC(C1)C2=NC(=C3[N]2C=CN=C3N)C4=CC5=C(C=C4)C=CC(=N5)C6=CC=CC=C6 (centres undefined)
2. CCCOc1ccc(C(=O)OCCN(CC)CC)cc1N

1. 85.3
2. 120

For every item below, please supply its cell viability.
1. CCN(CC)CCNC(=O)c1c(C)[nH]c(/C=C2\C(=O)Nc3ccc(F)cc32)c1C
2. CC(C)(N)C(=O)N[C@H](COCc1ccccc1)C(=O)N1CCC2(CC1)CN([S+](C)(=O)[O-])c1ccccc12
3. CCNC(=O)Nc1ccc(Oc2ncnc(N)c2/C=N/OC)cc1Cl
4. C=CC(=O)Nc1cccc(Sc2nc(Nc3ccc(N4CCN(C)CC4)cc3)ncc2Cl)c1

1. 45.5
2. 123
3. 113
4. 120

* * *

Exercise: state measured cell viability for each of the molecules provided.
tested on: P12-Ichikawa; experiment: cell viability relative to DMSO control; higher = less cytotoxic; details: HPLM + 10% dialyzed FBS; 48 h; 0.00702 µM
Give bare numbers, in %.

Before answering, review these 5 worked examples.
Cc1cc(Nc2ncc3c(n2)N(C)C(=O)N(c2cc(NC(=O)c4cccc(C(F)(F)F)c4)ccc2C)C3)n(C)n1 = 117
O=C(c1cncc(Br)c1)N1CCC(N2CCCC2)CC1 = 106
Cc1cn2cc(C(=O)N(C)CCO)cc(N[C@@H]3CCOc4cccc(C)c43)c2n1 = 109
CN(C)c1nc(Cc2ccc(NC(=O)c3ccc(C(F)(F)F)cc3)cc2)nc(N(C)C)c1CC(=O)O = 107
CCOC(=O)N1CCN(/[N+]([O-])=N/Oc2cc(O/N=[N+](\[O-])N3CCN(C(=O)OCC)CC3)c([N+](=O)[O-])cc2[N+](=O)[O-])CC1 = 125

Next up:
Fill in: cell viability of CO[C@H]1CCC(O[C@H]2C[C@H]([C@]3(C)CC[C@]4(C[C@H](O)[C@@H](C)[C@@H]([C@@H](C)/C=C(\C)C(=O)[C@H](C)C[C@H](C)C(=O)[O-])O4)O3)O[C@]3(O[C@@H]([C@H]4O[C@@](O)(CO)[C@H](C)C[C@@H]4C)C[C@@H]3C)[C@@H]2C)O[C@@H]1C (stereo partly specified) is ___
119
